Data provenance: paper PMC3017119

- target-entity: T1, REF^54–155 (recombinant, for NMR) (murine, UniProt Q9JJW6 54-155)
- T1 construct: 15N- or 13C/15N-labelled or unlabelled, by experiment; also called Δ53N
- method-notes: NMR titration; […]; 30°C; […], pH 6.2
- condition-description: both partners purified
Overview of recorded Kd for various binders

Here are 2 binders together with their reported answers.
[in] Fill blank: measured Kd of the binder NRYGKKIKFGT (also called KSHV-ORF57^100–110 peptide; source: synthetic peptide (Peptide Protein Research Ltd)) [KSHV ORF57^100–110] is ____.
[out] > 100000 µM

[in] Fill blank: measured Kd of the binder KTSWADRVREA (also called WT HVS-ORF57^105–115; WT-ORF57^105–115; source: synthetic peptide (Peptide Protein Research Ltd)) [HVS ORF57^105–115] is ____.
[out] > 1000 µM

The record that follows has no Kd shown yet.
[in] Kd for TGYARIERGHRR (also called VZV-ORF4^108–119 peptide; source: synthetic peptide (Peptide Protein Research Ltd)) [VZV ORF4^108–119] ?
[out] > 1000 µM
